# protocol.details: Clinical bioequivalence study: plasma concentrations (LC-MS-MS) and noncompartmental PK after oral tablet
# Assay type: in vivo, human
# condition.set: human, plasma, po, 15 mg, midazolam 15 mg oral, plasma, 1.5 h, mean (±1 SD) N=15; read-out: Concentration, Referent
quantity.kind: concentration at 1.5 h
Answer as a quantity: numeral, then unit.

concentration at 1.5 h reading for Cc1ncc2n1-c1ccc(Cl)cc1C(c1ccccc1F)=NC2 [Midazolam, midazolam] : 46.8 ng/mL

----------
# protocol.details: Clinical bioequivalence study: plasma concentrations (LC-MS-MS) and noncompartmental PK after oral tablet
# Assay type: in vivo, human
# condition.set: human, plasma, po, 15 mg, midazolam 15 mg oral, plasma, 0.5 h, mean (±1 SD) N=15; read-out: Concentration, Referent
quantity.kind: concentration at 0.5 h (ng/mL)
// return numeric value only (unit: ng/mL, not printed)

Entry Cc1ncc2n1-c1ccc(Cl)cc1C(c1ccccc1F)=NC2 [Midazolam, midazolam] , concentration at 0.5 h reported as 90.2

----------
# protocol.details: Clinical bioequivalence study: plasma concentrations (LC-MS-MS) and noncompartmental PK after oral tablet
# Format: in vivo, human
# condition.set: human, plasma, po, 2 mg, clonazepam 2 mg oral, plasma, 4 h, mean ±1 SD N=14; read-out: Concentration, Referent
quantity.kind: concentration at 4 h (ng/mL)
Write the value in ng/mL as a bare number.

The value of concentration at 4 h measured for the compound `O=C1CN=C(c2ccccc2Cl)c2cc([N+](=O)[O-])ccc2N1` turned out to be 13

----------
# protocol.details: Clinical bioequivalence study: plasma concentrations (LC-MS-MS) and noncompartmental PK after oral tablet
# Type: in vivo, human
# condition.set: human, plasma, po, 2 mg, clonazepam 2 mg oral, plasma, 8 h, one value per subject (A1-A6, A8, B1-B8; B5 consumed alcohol); read-out: Concentration, individual subjects
quantity.kind: concentration at 8 h (ng/mL)
Supply the numeric figure in ng/mL, leaving out any unit text.

concentration at 8 h measured on `O=C1CN=C(c2ccccc2Cl)c2cc([N+](=O)[O-])ccc2N1` = 9.63

----------
# protocol.details: Clinical bioequivalence study: plasma concentrations (LC-MS-MS) and noncompartmental PK after oral tablet
# Assay type: in vivo, human
# condition.set: human, plasma, po, 2 mg, clonazepam 2 mg oral, plasma, 24 h, MEAN column of the sheet with 15 subject columns; read-out: Concentration, MEAN of raw data sheet
quantity.kind: concentration at 24 h (ng/mL)
Your answer should be a plain number; it is taken to be in ng/mL.

The molecule identified as `O=C1CN=C(c2ccccc2Cl)c2cc([N+](=O)[O-])ccc2N1` registered its concentration at 24 h at 7.53

----------
# protocol.details: Clinical bioequivalence study: plasma concentrations (LC-MS-MS) and noncompartmental PK after oral tablet
# Assay type: in vivo, human
# condition.set: human, plasma, po, 2 mg, clonazepam 2 mg oral, plasma, 2 h, mean ±1 SD N=14; read-out: Concentration, Referent
quantity.kind: concentration at 2 h
Could you kindly put the unit after your number?

Recorded concentration at 2 h (compound `O=C1CN=C(c2ccccc2Cl)c2cc([N+](=O)[O-])ccc2N1` ): 13.3 ng/mL

----------
# protocol.details: Clinical bioequivalence study: plasma concentrations (LC-MS-MS) and noncompartmental PK after oral tablet
# Format: in vivo, human
# condition.set: human, plasma, po, 2 mg, clonazepam 2 mg oral, plasma, 72 h, MEAN column of the sheet with 15 subject columns; read-out: Concentration, MEAN of raw data sheet
quantity.kind: concentration at 72 h (ng/mL)
The reply should contain only the number, in ng/mL.

The compound listed as O=C1CN=C(c2ccccc2Cl)c2cc([N+](=O)[O-])ccc2N1 [Clonazepam, clonazepam] has a reported concentration at 72 h of 3.13

----------
# protocol.details: Clinical bioequivalence study: plasma concentrations (LC-MS-MS) and noncompartmental PK after oral tablet
# Assay type: in vivo, human
# condition.set: human, plasma, po, 2 mg, clonazepam 2 mg oral, plasma, 24 h, mean ±1 SD N=14; read-out: Concentration, Referent
quantity.kind: concentration at 24 h (ng/mL)
Report as a plain number; the unit ng/mL is understood.

Measured concentration at 24 h of O=C1CN=C(c2ccccc2Cl)c2cc([N+](=O)[O-])ccc2N1 [Clonazepam, clonazepam] : 7.65

----------
# protocol.details: Clinical bioequivalence study: plasma concentrations (LC-MS-MS) and noncompartmental PK after oral tablet
# Type: in vivo, human
# condition.set: human, plasma; Referent clinical, clonazepam 2 mg tablet oral, N = 14, mean ±1 SD
quantity.kind: AUC (ng·h/mL)
Record the value in ng·h/mL, omitting the unit from your answer.

Reported AUC ( O=C1CN=C(c2ccccc2Cl)c2cc([N+](=O)[O-])ccc2N1 [Clonazepam, clonazepam] ) = 529

----------
# protocol.details: Clinical bioequivalence study: plasma concentrations (LC-MS-MS) and noncompartmental PK after oral tablet
# Type: in vivo, human
# condition.set: human, plasma; Referent clinical, midazolam 15 mg tablet oral, N = 15, mean ±1 SD
quantity.kind: k el (s⁻¹)
Write the answer as a number in s⁻¹, unit excluded.

Reported k el ( `Cc1ncc2n1-c1ccc(Cl)cc1C(c1ccccc1F)=NC2` ) = 7.78e-05

----------
# protocol.details: Clinical bioequivalence study: plasma concentrations (LC-MS-MS) and noncompartmental PK after oral tablet
# Format: in vivo, human
# condition.set: human, plasma, po, 2 mg, clonazepam 2 mg oral, plasma, 2 h, MEAN column of the sheet with 15 subject columns; read-out: Concentration, MEAN of raw data sheet
quantity.kind: concentration at 2 h (ng/mL)
Provide the reading as a plain figure in ng/mL.

Short answer for `O=C1CN=C(c2ccccc2Cl)c2cc([N+](=O)[O-])ccc2N1` : concentration at 2 h was 13.1

----------
# protocol.details: Clinical bioequivalence study: plasma concentrations (LC-MS-MS) and noncompartmental PK after oral tablet
# Type: in vivo, human
# condition.set: human, plasma, po, 15 mg, midazolam 15 mg oral, plasma, 24 h, mean (±1 SD) N=15; read-out: Concentration, Referent
quantity.kind: concentration at 24 h (ng/mL)
Answer with a number only, understood to be in ng/mL.

Noted for `Cc1ncc2n1-c1ccc(Cl)cc1C(c1ccccc1F)=NC2` : its concentration at 24 h reads 0.41

----------
# protocol.details: Clinical bioequivalence study: plasma concentrations (LC-MS-MS) and noncompartmental PK after oral tablet
# Type: in vivo, human
# condition.set: human, plasma, po, 2 mg, clonazepam 2 mg oral, plasma, 3 h, one value per subject (A1-A6, A8, B1-B8; B5 consumed alcohol); read-out: Concentration, individual subjects
quantity.kind: concentration at 3 h (ng/mL)
Give the quantity in ng/mL, number only.

// field: concentration at 3 h; key: `O=C1CN=C(c2ccccc2Cl)c2cc([N+](=O)[O-])ccc2N1` ; value = 12.5

----------
# protocol.details: Clinical bioequivalence study: plasma concentrations (LC-MS-MS) and noncompartmental PK after oral tablet
# Type: in vivo, human
# condition.set: human, plasma, po, 15 mg, midazolam 15 mg oral, plasma, 0 h, mean (±1 SD) N=15; read-out: Concentration, Referent
quantity.kind: concentration at 0 h (ng/mL)
Quick note: give the figure in ng/mL, leave out the unit.

Lab book: concentration at 0 h of `Cc1ncc2n1-c1ccc(Cl)cc1C(c1ccccc1F)=NC2` noted as 0

----------
# protocol.details: Clinical bioequivalence study: plasma concentrations (LC-MS-MS) and noncompartmental PK after oral tablet
# Type: in vivo, human
# condition.set: human, plasma, po, 2 mg, clonazepam 2 mg oral, plasma, 12 h, mean ±1 SD N=14; read-out: Concentration, Referent
quantity.kind: concentration at 12 h (ng/mL)
Numeric answer only, unit ng/mL assumed.

// recorded concentration at 12 h for `O=C1CN=C(c2ccccc2Cl)c2cc([N+](=O)[O-])ccc2N1` : 8.39

----------
# protocol.details: Clinical bioequivalence study: plasma concentrations (LC-MS-MS) and noncompartmental PK after oral tablet
# Assay type: in vivo, human
# condition.set: human, plasma, po, 2 mg, clonazepam 2 mg oral, plasma, 0.5 h, MEAN column of the sheet with 15 subject columns; read-out: Concentration, MEAN of raw data sheet
quantity.kind: concentration at 0.5 h (ng/mL)
Give the value, in units of ng/mL, as a plain number.

Per the record, `O=C1CN=C(c2ccccc2Cl)c2cc([N+](=O)[O-])ccc2N1` has concentration at 0.5 h of 6.65

----------
# protocol.details: Clinical bioequivalence study: plasma concentrations (LC-MS-MS) and noncompartmental PK after oral tablet
# Type: in vivo, human
# condition.set: human, plasma; Referent clinical, clonazepam 2 mg tablet oral, N = 14, mean ±1 SD
quantity.kind: k el (s⁻¹)
Number in s⁻¹, nothing else.

Entry O=C1CN=C(c2ccccc2Cl)c2cc([N+](=O)[O-])ccc2N1 [Clonazepam, clonazepam] — recorded k el = 5.83e-06

----------
# protocol.details: Clinical bioequivalence study: plasma concentrations (LC-MS-MS) and noncompartmental PK after oral tablet
# Format: in vivo, human
# condition.set: human, plasma; Referent clinical, clonazepam 2 mg tablet oral, N = 14, median; read-out: Tmax
quantity.kind: Tmax (h)
Write the answer as a number in h, unit excluded.

Noted for O=C1CN=C(c2ccccc2Cl)c2cc([N+](=O)[O-])ccc2N1 [Clonazepam, clonazepam] : its Tmax reads 1.5
